Test system: CCRIS mutagenicity, Ames/micronucleus/aberration tests
method: CCRIS mutagenicity studies
test_parameters: Test System: AMES SALMONELLA TYPHIMURIUM; Strain/Indicator: TA100; Metabolic Activation: RAT, LIVER, S-9, AROCLOR; Method: STANDARD PLATE
Calls of active or inactive are those of the source. How the calls were made is not given here.
The reply should be one of these categories: 1 (yes) (active), 0 (no) (inactive)

>  <molecule>
N#Cc1ccc(/C=C/c2ccc([N+](=O)[O-])cc2)cc1

>  <label>
1 (yes)

$$$$
>  <molecule>
CCC(C)c1ccc(/C=C/c2ccc(N)cc2)cc1 (stereo unspecified)

>  <label>
1 (yes)

$$$$
>  <molecule>
Cc1ccc(C)cc1

>  <label>
0 (no)

$$$$

Task: Hi, sorry to bother you, what did the test record for CC(C)c1ccc(/C=C/c2ccc([N+](=O)[O-])cc2)cc1 ?
Result: 1 (yes)

Task: Hi, sorry to bother you, what did the test record for O=[N+]([O-])c1c(Cl)cc2c(c1Cl)Oc1cc(Cl)c(Cl)cc1O2 ?
Result: 0 (no)

Task: Hi, sorry to bother you, what did the test record for O=[N+]([O-])c1ccc2c(c1)Oc1ccccc1O2 ?
Result: 1 (yes)

---

Test system: CCRIS mutagenicity, Ames/micronucleus/aberration tests
method: CCRIS mutagenicity studies
test_parameters: Test System: AMES SALMONELLA TYPHIMURIUM; Strain/Indicator: TA98; Metabolic Activation: RAT, LIVER, S-9, AROCLOR 1254; Method: STANDARD PLATE
Calls of active or inactive are those of the source. How the calls were made is not given here.
The reply should be one of these categories: 1 (active), -1 (inactive)

Examples from the recorded data:
>  <compound>
O=C1[C@H]2CC=CC[C@H]2C(=O)N1SC(Cl)(Cl)Cl

>  <label>
1

$$$$
>  <compound>
CC(C)NCC(O)COc1cccc2c1C=CC2 (stereo not drawn)

>  <label>
-1

$$$$
>  <compound>
CCS(=O)(=O)n1ncc(Cl)c(Cl)c1=O

>  <label>
-1

$$$$
>  <compound>
N=C1C=CC(=C(c2ccc(N)cc2)c2ccc(N)cc2)C=C1

>  <label>
1

$$$$
>  <compound>
O=C1CCC(=O)N1O

>  <label>
-1

$$$$

Task: Hi, sorry to bother you, what did the test record for ClC1=C(Cl)[C@]2(Cl)[C@@H]3[C@H]4C[C@H]([C@@H]5O[C@H]45)[C@@H]3[C@@]1(Cl)C2(Cl)Cl ?
Result: -1

Task: Hi, sorry to bother you, what did the test record for CCN(CC)C(=S)S[C@@H]1O[C@H](CO)[C@@H](O)[C@H](O)[C@H]1O ?
Result: -1

Task: Hi, sorry to bother you, what did the test record for C/C=C/c1cc(OC)c(OC)cc1OC ?
Result: -1

---

Tested on: CCRIS mutagenicity, Ames/micronucleus/aberration tests
method: CCRIS mutagenicity studies
test_parameters: Test System: AMES SALMONELLA TYPHIMURIUM; Strain/Indicator: TA98; Metabolic Activation: NONE; Method: PREINCUBATION
Active and inactive are the calls of the source. The rule behind the calls is not given here.
The reply should be one of these categories: yes (1) (active), no (0) (inactive)

Examples from the recorded data:
>  <molecule>
C=CC(=O)OCC

>  <label>
no (0)

$$$$
>  <molecule>
Nc1cc(S(=O)(=O)O)c2cccc(S(=O)(=O)O)c2c1

>  <label>
no (0)

$$$$
>  <molecule>
O=[N+]([O-])c1ccc(O)c([N+](=O)[O-])c1

>  <label>
no (0)

$$$$
>  <molecule>
COc1ccc(C(=O)c2ccccc2O)c(O)c1

>  <label>
no (0)

$$$$
>  <molecule>
Oc1ccc2ccc3c4ccc5ccccc5c4c4c(c3c2c1O)O4

>  <label>
yes (1)

$$$$

Task: Hi, sorry to bother you, what did the test record for Cc1c(N)cccc1N=[N+]([O-])c1cccc(N)c1C ?
Result: no (0)

Task: Hi, sorry to bother you, what did the test record for c1ccc2[nH]cnc2c1 ?
Result: no (0)

Task: Hi, sorry to bother you, what did the test record for CC=C(C)C#N ?
Result: no (0)

Task: Hi, sorry to bother you, what did the test record for CC(C)(O)C#N ?
Result: no (0)

Task: Hi, sorry to bother you, what did the test record for CC(=O)O[C@]1(C(C)=O)CC[C@H]2[C@@H]3C4OC4(Cl)C4=CC(=O)[C@@H]5C[C@@H]5[C@]4(C)[C@H]3CC[C@@]21C (some centres undefined) ?
Result: no (0)

Task: Hi, sorry to bother you, what did the test record for c1ccc2cc3c(cc2c1)-c1cccc2cccc-3c12 ?
Result: no (0)

Task: Hi, sorry to bother you, what did the test record for O=S(=O)(O)Oc1cccc2c1cc1ccc3cccc4ccc2c1c34 ?
Result: no (0)

Task: Hi, sorry to bother you, what did the test record for CCN(CC)C(=S)SSC(=S)N(CC)CC ?
Result: no (0)

Task: Hi, sorry to bother you, what did the test record for Cn1c(NS(=O)(=O)O)nc2c3nc(CO)cnc3ccc21 ?
Result: no (0)

---

Tested on: CCRIS mutagenicity, Ames/micronucleus/aberration tests
method: CCRIS mutagenicity studies
test_parameters: Test System: AMES SALMONELLA TYPHIMURIUM; Strain/Indicator: TA100; Metabolic Activation: RAT, LIVER, S-9, AROCLOR 1254 (10%); Method: PREINCUBATION
Active and inactive are the calls of the source. No rule for the calls is given here.
recorded_endpoint: mutagenic call

Study these solved cases before continuing.
>  <molecule>
OCCBr

>  <mutagenic call>
active; positive

$$$$
>  <molecule>
COc1ccc(C(=O)c2ccccc2O)c(O)c1

>  <mutagenic call>
inactive; negative

$$$$
>  <molecule>
O=C(O)CNCP(=O)(O)O

>  <mutagenic call>
inactive; negative

$$$$
>  <molecule>
COc1ccc(C(=O)c2ccccc2)c(O)c1

>  <mutagenic call>
inactive; negative

$$$$
>  <molecule>
CNCCO

>  <mutagenic call>
inactive; negative

$$$$

Task: # mutagenic call lookup, item O=c1nc(O)n(Cl)c(=O)n1Cl
Result: inactive; negative

Task: # mutagenic call lookup, item CC(=O)NNc1ccccc1
Result: inactive; negative

Task: # mutagenic call lookup, item O=C1Nc2ccc(Cl)cc2C(c2ccccc2)=NC1O (stereo not given)
Result: inactive; negative

Task: # mutagenic call lookup, item CC(O)CBr (stereo not given)
Result: active; positive

Task: # mutagenic call lookup, item C=C(Cl)CCl
Result: active; positive

---

System: CCRIS mutagenicity, Ames/micronucleus/aberration tests
method: CCRIS mutagenicity studies
test_parameters: Test System: AMES SALMONELLA TYPHIMURIUM; Strain/Indicator: TA100; Metabolic Activation: RAT, LIVER, S-9, KC 500; Method: PREINCUBATION
Activity calls are given as the source filed them. The rule behind the calls is not given here.
The reply should be one of these categories: active, inactive

Task: Hi, sorry to bother you, what did the test record for Cc1ccc(C)cc1 ?
Result: inactive

---

System: CCRIS mutagenicity, Ames/micronucleus/aberration tests
method: CCRIS mutagenicity studies
test_parameters: Test System: Ames Salmonella typhimurium; Strain/Indicator: TA100; Metabolic Activation: Rat, Liver, S9, Sodium phenobarbital and 5,6-benzoflavone (10%); Method: Preincubation
The source made the active and inactive calls. How the calls were made is not given here.
The reply should be one of these categories: 1 (active), -1 (inactive)

Examples from the recorded data:
>  <compound_structure_string>
C=CCCl

>  <tested_system>
CCRIS mutagenicity, Ames/micronucleus/aberration tests

>  <label>
-1

$$$$
>  <compound_structure_string>
O=C(O)CCCl

>  <tested_system>
CCRIS mutagenicity, Ames/micronucleus/aberration tests

>  <label>
1

$$$$
>  <compound_structure_string>
C1N2CN3CN1CN(C2)C3

>  <tested_system>
CCRIS mutagenicity, Ames/micronucleus/aberration tests

>  <label>
-1

$$$$
>  <compound_structure_string>
CC(=O)CC(=O)Nc1ccccc1C

>  <tested_system>
CCRIS mutagenicity, Ames/micronucleus/aberration tests

>  <label>
-1

$$$$

Let's switch to this molecule now.
Task: Hi, sorry to bother you, what did the test record for C=COC(C)=O ?
Result: -1

---

Tested on: CCRIS mutagenicity, Ames/micronucleus/aberration tests
method: CCRIS mutagenicity studies
test_parameters: Test System: AMES SALMONELLA TYPHIMURIUM; Strain/Indicator: TA1537; Metabolic Activation: NONE; Method: PREINCUBATION
Calls of active or inactive are those of the source. The rule behind the calls is not given here.
The reply should be one of these categories: 1 (yes) for active, 0 (no) for inactive

Examples from the recorded data:
>  <compound>
c1ccsc1

>  <tested_system>
CCRIS mutagenicity, Ames/micronucleus/aberration tests

>  <label>
0 (no)

$$$$
>  <compound>
CC/C(=C(/c1ccc(OCCN(C)C)cc1)c1ccc(OP(=O)(O)O)cc1)c1ccc(C(C)C)cc1

>  <tested_system>
CCRIS mutagenicity, Ames/micronucleus/aberration tests

>  <label>
0 (no)

$$$$
>  <compound>
COc1ccc(C(=O)c2ccccc2)c(O)c1

>  <tested_system>
CCRIS mutagenicity, Ames/micronucleus/aberration tests

>  <label>
0 (no)

$$$$
>  <compound>
ClC1=C(Cl)[C@]2(Cl)[C@@H]3[C@H]4C[C@H]([C@@H]5O[C@H]45)[C@@H]3[C@@]1(Cl)C2(Cl)Cl

>  <tested_system>
CCRIS mutagenicity, Ames/micronucleus/aberration tests

>  <label>
0 (no)

$$$$
>  <compound>
Cc1ccc(OP(=O)(Oc2ccc(C)cc2C)Oc2ccc(C)cc2C)c(C)c1

>  <tested_system>
CCRIS mutagenicity, Ames/micronucleus/aberration tests

>  <label>
0 (no)

$$$$

Task: Hi, sorry to bother you, what did the test record for NC=O ?
Result: 0 (no)

Task: Hi, sorry to bother you, what did the test record for CN(C)CCO ?
Result: 0 (no)

Task: Hi, sorry to bother you, what did the test record for c1ccc2[nH]cnc2c1 ?
Result: 0 (no)

Data credit: PubChem BioAssay AID1259407
